All values here come from patent US9120777B2.

TEST SYSTEM: human SSTR5 (Homo sapiens)
Construct: expressed in transfected cells
Sequence (P35346 whole entry): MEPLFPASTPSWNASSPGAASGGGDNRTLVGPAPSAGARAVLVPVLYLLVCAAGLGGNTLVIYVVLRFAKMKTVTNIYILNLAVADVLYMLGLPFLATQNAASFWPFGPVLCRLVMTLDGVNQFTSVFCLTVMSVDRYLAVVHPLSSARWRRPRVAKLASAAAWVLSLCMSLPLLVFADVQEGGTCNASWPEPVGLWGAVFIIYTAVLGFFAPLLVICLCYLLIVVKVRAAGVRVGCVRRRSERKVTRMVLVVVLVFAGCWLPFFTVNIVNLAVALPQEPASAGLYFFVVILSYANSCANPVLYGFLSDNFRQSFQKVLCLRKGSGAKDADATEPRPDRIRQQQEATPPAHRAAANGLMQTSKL
PROTOCOL DETAILS: Evaluation of human SSTR5 antagonist activity using intracellular cAMP concentration as index
Format: cell-based
MEASUREMENT CONTEXT: 1 uM test compound; CHO (dhfr-) cells stably expressing human SSTR5; 0.1 nM somatostatin 28 and 0.3 uM forskolin; HTRF cAMP; read-out: Inhibition rate against SSTR5 at 1 uM
MEASURED ATTRIBUTE: inhibition at 1 µM (%)

CC(C)Oc1cc(-c2ccc(F)cc2)c(C2CC2)cc1CN1CCC(n2ccc(C(=O)O)cc2=O)CC1; 116
CC(C)Oc1nc(-c2ccc(F)cc2)c(C2CC2)cc1CN1CCC(n2ccc(C(=O)O)cc2=O)CC1; 134
CCc1c(C(=O)O)ccn(C2CCN(Cc3cc(C4CC4)c(-c4ccc(F)cc4F)c(F)c3OC(C)C)CC2)c1=O; 124
CCOc1cc(C2CCC2)c(C2CC2)cc1CN1CCC(n2ccc(C(=O)O)cc2=O)CC1; 84
CC(C)Oc1c(CN2CCC(n3ccc(C(=O)O)cc3=O)CC2)cc(C2CC2)c(-c2ccc(F)cc2F)c1Cl; 88
CCc1c(C(=O)O)ccn(C2CCN(Cc3cc(C4CC4)c(-c4ccc(F)cc4F)cc3OC(C)C)CC2)c1=O; 94
CCOc1c(CN2CCC(n3ccc(C(=O)O)c(CC)c3=O)CC2)cc(C2CC2)c(-c2ccc(F)cc2F)c1F; 98
